Target: HPK1 (Homo sapiens (Human), UniProt Q92918, S171E/T165E)
Sequence (Q92918 whole entry T165E/S171E): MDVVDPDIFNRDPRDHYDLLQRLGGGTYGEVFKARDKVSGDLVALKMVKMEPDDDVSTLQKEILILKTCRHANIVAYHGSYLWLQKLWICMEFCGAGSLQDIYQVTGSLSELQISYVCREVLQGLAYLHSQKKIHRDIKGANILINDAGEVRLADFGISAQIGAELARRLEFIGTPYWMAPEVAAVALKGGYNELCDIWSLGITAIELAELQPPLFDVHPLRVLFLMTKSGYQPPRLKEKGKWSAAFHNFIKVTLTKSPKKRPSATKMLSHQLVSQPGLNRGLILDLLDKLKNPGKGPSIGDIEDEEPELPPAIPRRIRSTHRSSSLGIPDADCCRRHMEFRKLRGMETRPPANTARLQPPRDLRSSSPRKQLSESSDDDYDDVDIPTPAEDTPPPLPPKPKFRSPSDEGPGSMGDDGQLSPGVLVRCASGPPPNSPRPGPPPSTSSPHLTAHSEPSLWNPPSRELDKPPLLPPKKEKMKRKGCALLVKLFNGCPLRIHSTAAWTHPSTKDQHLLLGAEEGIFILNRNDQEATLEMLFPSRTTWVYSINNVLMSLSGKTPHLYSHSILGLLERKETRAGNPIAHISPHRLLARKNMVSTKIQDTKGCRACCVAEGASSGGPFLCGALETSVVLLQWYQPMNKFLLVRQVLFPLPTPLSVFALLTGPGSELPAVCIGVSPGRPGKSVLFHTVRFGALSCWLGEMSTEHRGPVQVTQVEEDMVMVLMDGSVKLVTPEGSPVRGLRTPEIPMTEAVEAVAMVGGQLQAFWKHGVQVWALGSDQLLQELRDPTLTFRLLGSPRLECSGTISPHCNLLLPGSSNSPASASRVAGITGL
Test: HPK1-FL HTRF Enzymatic Assay ("HTRF")
Conditions: HPK full length, ATP 1 mM
pKi: −log10 of the molar value.
Categorized via pKi: lower bin (below 8), middle bin (8 to below 9), upper bin (9 or more)

Examples from the recorded data:
Req: The entry to classify is Cc1c(-c2cc3cc(NC(=O)NC4CCOC4)ncc3cc2F)cnc2c1NCCO2 (single isomer, unassigned) [Compound 206b] ; which class holds it?
Resp: middle bin

Req: Exam item: assign Cc1c(-c2cc3cc(NC(=O)NCC4CC4)ncc3cc2F)cnc2c1NCCO2 to the correct category.
Resp: upper bin

Req: State the class of the compound shown: CC[C@@H]1[C@H](C(=O)Nc2cc3cc(-c4c[n+]([O-])ccc4C)c(F)cc3cn2)[C@H]1c1cnn(C)c1 [Compound 302a]
Resp: lower bin

Req: Into which category would you place Cc1c(-c2cc3cc(NC(=O)OC4COC5(CCNC5)C4)ncc3cc2F)cnc2c1NCCO2 (racemic) ?
Resp: middle bin

Req: Determine which band this compound sits in: Cc1c(-c2cc3cc(NC(=O)OC4CS(=O)(=O)C4)ncc3cc2F)cnc2c1NCCO2
Resp: middle bin

Continuing:
Req: Sort Cc1c(-c2cc3cc(NC(=O)OCC4(F)CCNCC4)ncc3cc2F)cnc2c1NCCO2 into one of the categories.
Resp: middle bin

----------
Molecular target: HPK1 (Homo sapiens (Human), UniProt Q92918, S171E/T165E)
Experiment: HPK1-FL HTRF Enzymatic Assay ("HTRF")
Conditions: HPK full length, ATP 1 mM
Ki strictly under 3 nM means met; at 3 nM or over means not met.

Answered cases to consult:
Req: Does the reported Ki of the following compound sit strictly below 3 nM? COC(C)CCOC(=O)Nc1cc2cc(-c3cnc4c(c3C)NCCO4)c(F)cc2cn1 (racemic)
Resp: met

Req: Quick check: Ki of Cc1c(-c2cc3cc(NC(=O)OCC4CCCCO4)ncc3cc2F)cnc2c1NCCO2 (racemic) under 3 nM?
Resp: not met

Req: I'd appreciate it if you could check whether Cc1c(-c2cc3cc(NC(=O)O[C@@H]4CCC[C@H]4C#N)ncc3c(Cl)c2F)cnc2c1NCCO2 (single isomer, unassigned) [Compound 127a] has Ki smaller than 3 nM.
Resp: met

Req: Ki under 3 nM? Item: Cc1c(-c2cc3cc(NC(=O)OCC4CC4)ncc3cc2F)cnc2c1NCCO2
Resp: met

Req: Strictly below 3 nM: is that where Ki of Cc1c(-c2cc3cc(NC(=O)NC(C)CC#N)ncc3cc2F)cnc2c1NCCO2 (single isomer, unassigned) [Compound 203a] sits?
Resp: not met

***
Req: Confirm or reject: Ki of Cc1c(-c2cc3cc(NC(=O)OCC(F)(F)F)ncc3cc2F)cnc2c1NCCO2 lies strictly below 3 nM
Resp: not met

Req: Consider CC[C@H]1[C@H](C(=O)Nc2cc3cc(-c4cnc5c(c4C)NCCO5)c(F)cc3cn2)[C@H]1c1cnn(C)c1 (single isomer, unassigned) [Compound 301b] . Does its Ki lie strictly below 3 nM?
Resp: not met

----------
Biological target: HPK1 (Homo sapiens (Human), UniProt Q92918, S171E/T165E)
Experiment: HPK1-FL HTRF Enzymatic Assay ("HTRF")
Conditions: HPK full length, ATP 1 mM
Rule: Ki below 2 nM gives met, anything at or above gives not met.

Please review the following examples before continuing.
Req: For this compound, is Ki lower than 2 nM? Cc1c(-c2cc3cc(NC(=O)OC4CC5(CNC5)C4)ncc3cc2F)cnc2c1NCCO2
Resp: met

Req: # strict comparison: is reported Ki < 2 nM? input = CC[C@@H]1[C@@H](C(=O)Nc2cc3cc(-c4cnc5c(c4C)NCCO5)c(F)cc3cn2)[C@@H]1c1cnn(C)c1 (single isomer, unassigned) [Compound 301a]
Resp: met

Req: For Cc1c(-c2cc3cc(NC(=O)OC[C@H]4CCCN4)ncc3cc2F)cnc2c1NCCO2 [Compound 109a] , is the recorded Ki below the cut-off of 2 nM?
Resp: not met

Further cases:
Req: Below 2 nM on Ki? Entry Cc1c(-c2cc3cc(NC(=O)NC(C)c4cnn(C)c4)ncc3cc2F)cnc2c1NCCO2 (single isomer, unassigned) [Compound 201b]
Resp: not met
